Molecular target: VIM-2 (Escherichia coli)
Construct: made in house
Assay: fluorogenic cephalosporin FC5 MBL inhibition assay, VIM-2
Type: biochemical
Settings: FC5 5 μM, enzyme 500 pM, quadruplicate; read-out: pIC50 VIM-2 (converted)
Protocol: The NSPCs were screened against four of the currently most clinically relevant B1 MBLs, i.e. VIM-1, VIM-2, NDM-1, and IMP-1 (Table 1), using an assay employing the “fluorogenic” cephalosporin FC5.[40] […] VIM-1, 100 pM; NDM-1, 20 pM; IMP-1, 20 pM; and VIM-2, 500 pM. […] The initial rates of reaction (measured after 10 min pre-incubation of the NSPC with the enzyme) were assessed by monitoring the fluorescence intensity at λex = 380 nm and λem = 460 nm. […]
readout-type: IC50 (nM)

NS(=O)(=O)n1ccc(-c2ccc(N3CCOCC3)cc2)c1C(=O)O = 158

a: N=C1NCC(c2ccn(S(N)(=O)=O)c2C(=O)O)CN1 (stereo not drawn)
b: Nc1nc2ccc(-c3ccn(S(N)(=O)=O)c3C(=O)O)cn2n1
Q. Which value of IC50 is greater, the one for a or the one for b ? Output the label that corresponds to your choice.
A. a

From: paper PMC8205225
